# tested_target: HLA-A*03:01
# experiment_summary: IEDB peptide-MHC binding, purified MHC/direct/fluorescence; filed as Kd, often an IC50 or EC50 that approximates it; bounds were set here for any values at or beyond the usual limits of such assays
# setup_conditions: source organism: Camelpox virus M-96
pKd: −log10 of the molar value.
measured_quantity: pKd

Supply pKd value. Item: `VMCIQMKYV`
≤ 4.70

###

# tested_target: HLA-B*15:01
# experiment_summary: IEDB peptide-MHC binding, purified MHC/competitive/fluorescence; filed as Kd, often an IC50 or EC50 that approximates it; bounds were set here for any values at or beyond the usual limits of such assays
# setup_conditions: source organism: Shigella flexneri 5 str. 8401
pKd: −log10 of the molar value.
measured_quantity: pKd

Supply pKd value. Item: `NELQTLPSL`
≤ 4.70

###

# tested_target: HLA-A*24:02
# experiment_summary: IEDB peptide-MHC binding, purified MHC/competitive/fluorescence; bounds were set here for any values at or beyond the usual limits of such assays
# setup_conditions: source organism: Zaire ebolavirus
pIC50: −log10 of the molar value.
Entry flag: label 1 if pIC50 reaches 5; label 0 if it does not.

API: above_or_equal(metric=pIC50, cutoff=5) for item `AKNISGQSP`
label 0

API: above_or_equal(metric=pIC50, cutoff=5) for item `FLSFASLFL`
label 1

API: above_or_equal(metric=pIC50, cutoff=5) for item `AIGLAWIPY`
label 0

API: above_or_equal(metric=pIC50, cutoff=5) for item `EGIYIEGLM`
label 0

API: above_or_equal(metric=pIC50, cutoff=5) for item `LIWKVNPEI`
label 1

API: above_or_equal(metric=pIC50, cutoff=5) for item `ECLPAAPDG`
label 0

API: above_or_equal(metric=pIC50, cutoff=5) for item `TTIGEWAFW`
label 1

API: above_or_equal(metric=pIC50, cutoff=5) for item `LMHNQDGLI`
label 0

API: above_or_equal(metric=pIC50, cutoff=5) for item `GQQFYWPVM`
label 1

API: above_or_equal(metric=pIC50, cutoff=5) for item `IDFLLQRWG`
label 0

API: above_or_equal(metric=pIC50, cutoff=5) for item `SADSFLLML`
label 0

API: above_or_equal(metric=pIC50, cutoff=5) for item `AKHGEYAPF`
label 0

API: above_or_equal(metric=pIC50, cutoff=5) for item `RTSFFLWVI`
label 1

###

# tested_target: HLA-B*18:01
# experiment_summary: IEDB peptide-MHC binding, purified MHC/competitive/fluorescence; filed as Kd, often an IC50 or EC50 that approximates it; bounds were set here for any values at or beyond the usual limits of such assays
# setup_conditions: source organism: Vibrio cholerae O395
measured_quantity: Kd

Identify measured Kd obtained with HLA-B*18:01 for `RVHFHRFMY` .
≥ 20 µM

###

# tested_target: HLA-A*03:01
# experiment_summary: IEDB peptide-MHC binding, purified MHC/competitive/fluorescence; filed as Kd, often an IC50 or EC50 that approximates it; bounds were set here for any values at or beyond the usual limits of such assays
# setup_conditions: source organism: Orthohantavirus andesense
measured_quantity: Kd (nM)
Quick note: give the figure in nM, leave out the unit.

Supply Kd value. Item: `STGKSIKFK`
14.7

###

Consider the following sequences; for each one, report its pKd.
# tested_target: HLA-B*57:01
# experiment_summary: IEDB peptide-MHC binding, purified MHC/competitive/fluorescence; filed as Kd, often an IC50 or EC50 that approximates it; bounds were set here for any values at or beyond the usual limits of such assays
# setup_conditions: source organism: Zaire ebolavirus
pKd: −log10 of the molar value.

Supply pKd value. Item: `LSDAIFDDL`
≤ 4.70

Supply pKd value. Item: `FLSFASLFL`
≤ 4.70

###

# tested_target: HLA-A*02:06
# experiment_summary: IEDB peptide-MHC binding, purified MHC/direct/fluorescence; filed as Kd, often an IC50 or EC50 that approximates it; bounds were set here for any values at or beyond the usual limits of such assays
# setup_conditions: source organism: Influenza A virus (A/Taiwan/2/2006(H1N1))
measured_quantity: Kd

Supply Kd value. Item: `ELDEIGEDV`
≥ 20 µM

###

# tested_target: HLA-B*38:01
# experiment_summary: IEDB peptide-MHC binding, purified MHC/direct/fluorescence; filed as Kd, often an IC50 or EC50 that approximates it; bounds were set here for any values at or beyond the usual limits of such assays
# setup_conditions: source organism: Giardia lamblia ATCC 50803
measured_quantity: Kd

Supply Kd value. Item: `LPVFATIGL`
≥ 20 µM

###

# tested_target: HLA-B*58:01
# experiment_summary: IEDB peptide-MHC binding, purified MHC/direct/fluorescence; filed as Kd, often an IC50 or EC50 that approximates it; bounds were set here for any values at or beyond the usual limits of such assays
# setup_conditions: source organism: Vibrio vulnificus YJ016
pKd: −log10 of the molar value.
measured_quantity: pKd

Supply pKd value. Item: `DAYGFHNYK`
≤ 4.70

###

# tested_target: HLA-B*15:01
# experiment_summary: IEDB peptide-MHC binding, purified MHC/competitive/fluorescence; filed as Kd, often an IC50 or EC50 that approximates it; bounds were set here for any values at or beyond the usual limits of such assays
# setup_conditions: source organism: Yersinia pestis Antiqua
measured_quantity: Kd

Supply Kd value. Item: `FFQVIAKRY`
≥ 20 µM

###

# tested_target: HLA-A*68:23
# experiment_summary: IEDB peptide-MHC binding, purified MHC/competitive/fluorescence; filed as Kd, often an IC50 or EC50 that approximates it; bounds were set here for any values at or beyond the usual limits of such assays
# setup_conditions: source organism: West Nile virus
measured_quantity: Kd (nM)
Quick note: give the figure in nM, leave out the unit.

Supply Kd value. Item: `ETTNWLWTF`
2.2

###

# tested_target: HLA-B*15:09
# experiment_summary: IEDB peptide-MHC binding, purified MHC/direct/fluorescence; filed as Kd, often an IC50 or EC50 that approximates it; bounds were set here for any values at or beyond the usual limits of such assays
# setup_conditions: source organism: Variola virus
measured_quantity: pKd
Notebook: values listed as pKd are -log10 of the concentration (mol/L).

Supply pKd value. Item: `TRVTNNVYL`
5.39

###

# tested_target: HLA-B*15:17
# experiment_summary: IEDB peptide-MHC binding, purified MHC/direct/fluorescence; filed as Kd, often an IC50 or EC50 that approximates it; bounds were set here for any values at or beyond the usual limits of such assays
# setup_conditions: source organism: Escherichia coli O157:H7
measured_quantity: Kd (nM)
Quick note: give the figure in nM, leave out the unit.

Supply Kd value. Item: `ITIPIGLYL`
1.8

###

Consider the following sequences; for each one, report its pKd.
# tested_target: HLA-A*03:01
# experiment_summary: IEDB peptide-MHC binding, purified MHC/competitive/radioactivity; filed as Kd, often an IC50 or EC50 that approximates it; bounds were set here for any values at or beyond the usual limits of such assays
# setup_conditions: source organism: Mammarenavirus juninense
pKd: −log10 of the molar value.

Identify measured pKd obtained with HLA-A*03:01 for `PLLCNLNKSH` .
≤ 4.15

Identify measured pKd obtained with HLA-A*03:01 for `SWPVQCPLDH` .
≤ 4.15

###

# tested_target: HLA-A*11:01
# experiment_summary: IEDB peptide-MHC binding, purified MHC/competitive/radioactivity; filed as Kd, often an IC50 or EC50 that approximates it; bounds were set here for any values at or beyond the usual limits of such assays
# setup_conditions: source organism: SARS coronavirus Tor2
measured_quantity: pKd
Notebook: values listed as pKd are -log10 of the concentration (mol/L).

Supply pKd value. Item: `QQQGQTVTK`
6.32

Supply pKd value. Item: `TQNVLYENQK`
6.28

Supply pKd value. Item: `IVFVCVEYY`
7.39

Supply pKd value. Item: `TMHANYIFWR`
6.90

Supply pKd value. Item: `ASLPYGANK`
6.95

Supply pKd value. Item: `ALAYYNNSK`
7.54

Supply pKd value. Item: `GMSYYCKSHK`
7.04

Supply pKd value. Item: `MLLQFAYSNR`
6.07

Supply pKd value. Item: `IVNAANIHLK`
6.98

Supply pKd value. Item: `NVYADSFVVK`
7.00

Supply pKd value. Item: `RLYECLYRNR`
6.22

Supply pKd value. Item: `YFVCWHTHNY`
5.09

Supply pKd value. Item: `KTNCCRFQEK`
7.48

Supply pKd value. Item: `TVYVYSRVK`
6.84

Supply pKd value. Item: `KVKYLYFIK`
7.31

Supply pKd value. Item: `ALSTNHGHK`
6.21

Supply pKd value. Item: `WIMLLQFAY`
4.85

Supply pKd value. Item: `SMMGFKMNY`
7.97

Supply pKd value. Item: `VLAYMLFTK`
9.05

Supply pKd value. Item: `AIVCRFDTR`
5.92

This collection of values is drawn from the Immune Epitope Database (IEDB).
